Read-out: Interleukin-8 (IL8), CXCL8 (gene 3576)
Test: BSK_3C_IL8: BioMAP Diversity Plus: 3C Assay for Interleukin-8 (IL8) Biomarker Activity (AID 2283020)
Conditions: primary human endothelial cells (HUVEC); actives raise or lower the signal
Experimental: BSK_3C is a cell-based, multiplexed-readout assay that uses umbilical vein endothelium, a human vascular primary cell, with measurements taken at 24 hours after chemical dosing in a 96-well plate.BSK_3C_IL8 is an assay component measured in the BSK_3C assay. It measures IL-8 antibody related to regulation of gene expression using ELISA technology.Data from the assay component BSK_3C_IL8 was analyzed into 1 assay endpoint. […]
Calls of active or inactive are those of the source. The calls were made as follows: active = hit-call score of the fitted dose curve at least 0.9, where 1 is the maximum; inactive = score below 0.9.
Can you answer with just one of these options? t = active, f = inactive

>>> category_label("CC(=O)OCC=C(C)CCC=C(C)CCC=C(C)C")
"f"
>>> category_label("C#C[C@]1(O)CC[C@H]2[C@@H]3CCc4cc(O)ccc4[C@H]3CC[C@@]21C")
"t"
>>> category_label("C=C(C)C(=O)OCCC(F)(F)C(F)(F)C(F)(F)C(F)(F)C(F)(F)C(F)(F)C(F)(F)C(F)(F)F")
"f"
>>> category_label("C=C(F)C(=O)OC(C(F)(F)F)C(F)(F)F")
"f"
>>> category_label("O=C(O)C(F)(F)OC(F)(F)C(F)(F)OC(F)(F)C(F)(F)C(F)(F)C(F)(F)F")
"f"
>>> category_label("CCCCCCCCCC(=O)OCC")
"t"

Ask | Returns: the outcome recorded for `O=C(c1ccc(OCCN2CCCCC2)cc1)c1c(-c2ccc(O)cc2)sc2cc(O)ccc12` in this assay.
Reply | t

Ask | Returns: the outcome recorded for CCCCCCCC1CCCC1=O (stereo not given) in this assay.
Reply | t

Ask | Returns: the outcome recorded for `C=C(C)C(N)=O` in this assay.
Reply | f

Ask | Returns: the outcome recorded for `O=C1OC2(c3ccc(O)cc3Oc3cc(O)ccc32)c2ccccc21` in this assay.
Reply | t

Ask | Returns: the outcome recorded for `CCC(=O)OCC=Cc1ccccc1` in this assay.
Reply | f

Ask | Returns: the outcome recorded for `CC(=O)CCC=C(C)CCC=C(C)C` in this assay.
Reply | f

###

Biological target: Estrogen receptor (Homo sapiens) (UniProt P03372)
Sequence (P03372 whole entry, looked up): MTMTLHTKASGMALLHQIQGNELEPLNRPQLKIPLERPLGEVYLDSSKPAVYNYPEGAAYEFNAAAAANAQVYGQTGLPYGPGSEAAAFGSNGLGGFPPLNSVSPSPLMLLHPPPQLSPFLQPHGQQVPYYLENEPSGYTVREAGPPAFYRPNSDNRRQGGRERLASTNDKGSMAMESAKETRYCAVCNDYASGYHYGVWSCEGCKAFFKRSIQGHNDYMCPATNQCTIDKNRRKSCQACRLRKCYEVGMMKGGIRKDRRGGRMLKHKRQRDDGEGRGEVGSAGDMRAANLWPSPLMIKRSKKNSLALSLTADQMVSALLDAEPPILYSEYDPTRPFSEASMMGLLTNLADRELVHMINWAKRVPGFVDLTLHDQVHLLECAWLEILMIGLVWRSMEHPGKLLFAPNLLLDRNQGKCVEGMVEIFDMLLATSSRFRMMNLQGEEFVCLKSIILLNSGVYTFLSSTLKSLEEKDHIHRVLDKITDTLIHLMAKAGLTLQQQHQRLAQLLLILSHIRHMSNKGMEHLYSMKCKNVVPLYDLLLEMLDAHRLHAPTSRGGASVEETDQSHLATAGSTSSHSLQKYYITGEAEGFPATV
Test: CCTE_Deisenroth_AIME_384WELL_LUC_Active: CCTE's 384-well Estrogen Receptor Transactivation Assay with AIME metabolic competence (ERTA luciferase; metabolism positive), Deisenroth Lab (AID 2284030)
Records with an inconclusive call do not appear. Activity calls are given as the source filed them. The calls were made as follows: active = hit-call score of the fitted dose curve at least 0.9, where 1 is the maximum; inconclusive = response in the unintended direction; inactive = score below 0.9.
Can you answer with just one of these options? active, inactive

Ask | Returns: the outcome recorded for `CC(=O)OC/C=C(C)/C=C/C=C(C)/C=C/C1=C(C)CCCC1(C)C` in this assay.
Reply | inactive

###

Assay: BSK_SAg_SRB: Viability Assessment in the BioMAP Diversity Plus: SAg Assay (AID 2283096);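 also: cells read one day after compound addition; hits may be either gain or loss of signal compared with DMSO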
Conditions: primary human HUVEC with PBMC
The source made the active and inactive calls. Rule for the calls: active = hit-call score of the fitted dose curve at least 0.9, where 1 is the maximum; inactive = score below 0.9.
Can you answer with just one of these options? 1 (yes) = active, 0 (no) = inactive

>>> category_label("C=CC(=O)OCC(CO)(COC(=O)C=C)COC(=O)C=C")
"1 (yes)"
>>> category_label("c1ccc2c(c1)-c1ccc3ccc4cccc5cc-2c1c3c45")
"0 (no)"
>>> category_label("CC1=CC(C)C(C=O)C(C)C1 (stereo not given) (tested in a mixture with another compound)")
"0 (no)"

Now look at this entry.
Ask | Returns: the outcome recorded for `CCOC(=O)C=Cc1ccccc1` in this assay.
Reply | 0 (no)

###

Assay: ATG_TCF_b_cat_CIS: Attagene CIS-FACTORIAL HepG2 Assay for human T-Cell-Factor with beta-catenin (TCF/b-cat) (AID 2282965)
Details: HepG2 TCF/beta-catenin cis-reporter transcription, actives raise or lower the signal
Activity calls are given as the source filed them. How the source made its calls: active means hit-call score of the fitted dose curve at least 0.9, where 1 is the maximum; inactive means score below 0.9.
Can you answer with just one of these options? 1 (yes) for active, 0 (no) for inactive

Below are worked cases with known answers.
>>> category_label("CC(=O)OC(C)(C)C1CC=C(C)CC1 (stereo not drawn)")
"0 (no)"
>>> category_label("C[C@H](CCC(=O)O)[C@H]1CC[C@H]2[C@@H]3CC[C@@H]4C[C@H](O)CC[C@]4(C)[C@H]3CC[C@]12C")
"1 (yes)"
>>> category_label("CCCCOC(=O)C(C)OC(=O)CCC (stereo not drawn)")
"0 (no)"
>>> category_label("CCCCCCCCCC(=O)OCC")
"0 (no)"
>>> category_label("NNC(=O)OCc1ccccc1")
"0 (no)"

Ask | Returns: the outcome recorded for CC(CO)c1ccccc1 (stereo not drawn) in this assay.
Reply | 0 (no)

Ask | Returns: the outcome recorded for CC(=O)C1C(=O)C=C(C)OC1=O (stereo not drawn) in this assay.
Reply | 0 (no)

Ask | Returns: the outcome recorded for `O=C(O)c1cc2ccccc2cc1O` in this assay.
Reply | 0 (no)

Ask | Returns: the outcome recorded for CC/C=C\CCOC(C)OCC (stereo not drawn) in this assay.
Reply | 0 (no)

Ask | Returns: the outcome recorded for CCCCC(CC)COCCO (stereo not drawn) in this assay.
Reply | 0 (no)

Ask | Returns: the outcome recorded for `C=CC(=O)OCC(CO)(COC(=O)C=C)COC(=O)C=C` in this assay.
Reply | 1 (yes)

###

Assay: TOX21_p53_BLA_p3_viability: Viability Assessment in the Tox21 HCT-116 p53 Agonism Beta-lactamase Assay, Phase 3 (AID 2283593);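 also: cells exposed to compound for 16 h before reading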
From the text: TOX21_p53_BLA_p3 is a cell-based, single-readout assay that uses HCT116, a human intestinal cell line, […] in a 1536-well plate.TOX21_p53_BLA_p3_viability is an assay readout measuring cellular ATP content and detected with CellTiter-Glo Luciferase-coupled ATP quantitation.TOX21_p53_BLA_p3_viability used a type of viability reporter where loss-of-signal activity can be used to understand changes in the cell viability. […]
Results filed as inconclusive are left out. Activity calls are given as the source filed them. Rule for the calls: active = hit-call score of the fitted dose curve at least 0.9, where 1 is the maximum; inconclusive = response in the unintended direction; inactive = score below 0.9.
Can you answer with just one of these options? active, inactive

Ask | Returns: the outcome recorded for CCC(C)(C)C1CCC(OC)CC1 (stereo not given) in this assay.
Reply | inactive

Ask | Returns: the outcome recorded for `NCCN1CCNCC1` in this assay.
Reply | inactive

Ask | Returns: the outcome recorded for CCC(C)COC(=O)CC(C)C (stereo not given) in this assay.
Reply | inactive

Ask | Returns: the outcome recorded for `CCCCCCCCOS(=O)(=O)O` in this assay.
Reply | inactive

Ask | Returns: the outcome recorded for `CC(C)Cc1ccccc1` in this assay.
Reply | inactive

Ask | Returns: the outcome recorded for `CNC(=C[N+](=O)[O-])NCCSCc1ccc(CN(C)C)o1` in this assay.
Reply | inactive

Ask | Returns: the outcome recorded for `CN(C)CCC=C1c2ccccc2CCc2ccccc21` in this assay.
Reply | inactive

Ask | Returns: the outcome recorded for `CCCCCCCCCC(=O)OCC` in this assay.
Reply | inactive

Ask | Returns: the outcome recorded for `O=[N+]([O-])c1cc(N(CCO)CCO)ccc1NCCO` in this assay.
Reply | inactive

Ask | Returns: the outcome recorded for C=C(C)CCCC(C)CCO (stereo not given) in this assay.
Reply | inactive

Ask | Returns: the outcome recorded for `OC[C@@H](O)[C@H](O)[C@@H](O)[C@@H](O)CO` in this assay.
Reply | inactive

Ask | Returns: the outcome recorded for `COc1ccccc1NC(=O)CC(C)=O` in this assay.
Reply | inactive

Ask | Returns: the outcome recorded for `c1ccc2scnc2c1` in this assay.
Reply | inactive

Ask | Returns: the outcome recorded for CCCCCCC(C)O (stereo not given) in this assay.
Reply | inactive

Ask | Returns: the outcome recorded for `CCC(C)(C)c1cc(O)c(C(C)(C)CC)cc1O` in this assay.
Reply | inactive

Ask | Returns: the outcome recorded for CCC(=O)OC(C)(C)C1CC=C(C)CC1 (stereo not given) in this assay.
Reply | inactive

Ask | Returns: the outcome recorded for `O=C(O)c1ccco1` in this assay.
Reply | inactive

Ask | Returns: the outcome recorded for `CC1=CCC(C(C)C)=CC1` in this assay.
Reply | inactive

Ask | Returns: the outcome recorded for `O=S(=O)(O)c1cc(S(=O)(=O)O)c2c(N=Nc3ccccc3)c(O)ccc2c1` in this assay.
Reply | inactive

###

Test: BSK_3C_uPAR: BioMAP Diversity Plus: 3C Assay for Urokinase-type plasminogen activator receptor (uPAR) Biomarker Activity (AID 2282998)
Details: BioMAP 3C HUVEC, uPAR biomarker ELISA; actives raise or lower the signal
Procedure: BSK_3C is a cell-based, multiplexed-readout assay that uses umbilical vein endothelium, a human vascular primary cell, with measurements taken at 24 hours after chemical dosing in a 96-well plate.BSK_3CAR is an assay component measured in the BSK_3C assay. It measures uPAR antibody related to regulation of gene expression using ELISA technology.Data from the assay component BSK_3CAR was analyzed into 1 assay endpoint. […]
Calls of active or inactive are those of the source. How the source made its calls: active means hit-call score of the fitted dose curve at least 0.9, where 1 is the maximum; inactive means score below 0.9.
Can you answer with just one of these options? active, inactive

Below are worked cases with known answers.
>>> category_label("CCn1cc(C(=O)O)c(=O)c2ccc(C)nc21")
"inactive"
>>> category_label("CCC(=O)OCC=Cc1ccccc1")
"active"
>>> category_label("CC(=O)CCC=C(C)CCC=C(C)C")
"inactive"
>>> category_label("CC(C)(CO)CO")
"inactive"
>>> category_label("c1ccc(OCCOc2ccccc2)cc1")
"inactive"
>>> category_label("CC(=O)OCC=C(C)CCC=C(C)CCC=C(C)C")
"inactive"

Ask | Returns: the outcome recorded for `Nc1ccc(N)c([N+](=O)[O-])c1` in this assay.
Reply | inactive

Ask | Returns: the outcome recorded for CC1=CC(C)C(C=O)C(C)C1 (stereo not drawn) (tested in a mixture with another compound) in this assay.
Reply | inactive
